Reference for the values: patent US6300331A

I'd be grateful if you could share measured IC50 for these entries.
# System: KB cells
# assayText: Cytotoxicity against KB cells (crystal violet dying method)
# Type: cell-based
# appliedConditions: Homo sapiens; KB cells, 72 hours, 50% proliferation inhibition; read-out: Cytotoxicity [IC50 (μM)]
Where a name gives a salt, the structure may show the parent alone.
The figure you give is taken to be in µM; do not add the unit.

[ask] Given the entry CNC(=O)c1cc(C(=O)NCCNCCN2C(=O)c3cccc4cc([N+](=O)[O-])cc(c34)C2=O)cc(N2C(=O)c3cccc4cc([N+](=O)[O-])cc(c34)C2=O)c1 [Example 43, hydrochloride] , report its measured IC50.
[reply] 0.025

[ask] Continue with CN1CCN(C(=O)c2cc(C(=O)NCCNCCN3C(=O)c4cccc5cc([N+](=O)[O-])cc(c45)C3=O)cc(N3C(=O)c4cccc5cccc(c45)C3=O)c2)CC1 [Example 50, hydrochloride]
[reply] 0.022

[ask] Next up: O=C(NCCNCCN1C(=O)c2cccc3cc([N+](=O)[O-])cc(c23)C1=O)c1cc(C(=O)NCCNCCN2C(=O)c3cccc4cc([N+](=O)[O-])cc(c34)C2=O)cc(N2C(=O)c3cccc4cc([N+](=O)[O-])cc(c34)C2=O)c1 [Example 4, dihydrochloride]
[reply] 0.048

[ask] Now consider Cn1c(C(=O)NCCNCCNC(=O)c2cc(C(=O)NCCNCCN3C(=O)c4cccc5cc([N+](=O)[O-])cc(c45)C3=O)cc(N3C(=O)c4cccc5cc([N+](=O)[O-])cc(c45)C3=O)c2)cc2ccccc21 [Example 16, dihydrochloride] and answer again.
[reply] 6.6
